src = PubChem BioAssay AID1419

testMethodNotes: blockers of an Epstein-Barr virus protein-peptide interaction – biochemical, fluorescence polarization, dose response (AID 1419)
assayContext: cell-free protein-peptide binding, 2 h
The source made the active and inactive calls. No rule for the calls is given here.
The reply should name one outcome from 1 for active, 0 for inactive

Recorded results for 4 molecules are shown here.
O=C(OCCN1C(=O)c2cccc3c(N4CCOCC4)ccc(c23)C1=O)c1ccccc1Cl | 1
CC(C)c1nnc(N2C(=O)C(O)=C(C(=O)c3cccs3)C2c2ccccc2)s1 (stereo not given) | 1
CC1CN(c2nc3ccccc3nc2C(C#N)C(=O)NCc2ccc3c(c2)OCO3)CC(C)O1 (stereo not given) | 1
CC1=CC(=C(C#N)c2nc3ccccc3s2)C=C(C)N1Cc1ccco1 | 1

Tell me the assay call for CCN1CC=C2C(C#N)=C(N)C(C#N)(C#N)C(c3cc(Cl)ccc3Cl)C2C1 (stereo not given) please.
0

Tell me the assay call for `O=C(O)c1ccccc1/C=N/NC(=O)c1cc(-c2ccco2)nc2ccccc12` please.
0

Tell me the assay call for `NC(=O)c1c(NC(=O)Cn2nc(C(=O)O)c3ccccc3c2=O)sc2c1CCCC2` please.
0

====

IC50 values, listed per item
testMethodNotes: blockers of an Epstein-Barr virus protein-peptide interaction – biochemical, fluorescence polarization, dose response (AID 1419)
assayContext: cell-free protein-peptide binding, 2 h
The source made the active and inactive calls. The rule behind the calls is not given here.

Consider the following illustrative entries.
CCn1c(O)c(C=Nc2ccc(N3CCOCC3)cc2)c(=O)n(CC)c1=S | 4.91 µM
COC(=O)c1cc2n3ccccc3c(C)c(-c3ccccc3)c-2c1C(=O)OC | 2.69 µM
CN1C[C@H](CO)C=C2c3cccc4[nH]cc(c34)C[C@H]21 | 12.4 µM
COc1cc(C=C2C(=O)c3ccccc3C2=O)cc(OC)c1OC | > 54 µM (inactive)
CSc1nc(N(C)CCO)c2sc3nc(-c4ccco4)c4c(c3c2n1)CCC4 | > 54 µM (inactive)

Consider the record given below.
Field request: IC50 | item: `CC(=O)c1ccc2noc(-c3ccc(F)cc3)c2c1`
3.34 µM

====

testMethodNotes: blockers of an Epstein-Barr virus protein-peptide interaction – biochemical, fluorescence polarization, dose response (AID 1419)
assayContext: cell-free protein-peptide binding, 2 h
The source made the active and inactive calls. The rule behind the calls is not given here.
The reply should name one outcome from active, inactive

Recorded results for 8 molecules are shown here.
Cc1oc2cc(O)ccc2c(=O)c1-c1nncn1-c1ccccc1 | active
Oc1ccccc1C=NC1=NN(c2cccc(C(F)(F)F)c2)CC1 | active
O=C(OCCN1C(=O)c2cccc3c(N4CCOCC4)ccc(c23)C1=O)c1ccc(Cl)cc1Cl | active
O=[N+]([O-])c1ccc2[nH]c(O)c(N=NC(=S)Nc3cccnc3)c2c1 | inactive
CN1C(=O)C(=Cc2ccc(N3CCCCCC3)cc2)C(=O)N(C)C1=O | active
COc1cccc(/C(O)=C/c2nc3ccc(C(=O)NCCc4ccc(Cl)cc4)cc3[nH]c2=O)c1 | active
Cc1ccc(N=Nc2c(O)n(CN3CCOCC3)c3ccccc23)cc1 | active
COc1ccccc1N1C(=O)C2C(C(=O)c3ccccc3)=NN(c3ccccc3)C2C1=O (configuration not stated) | active

Tell me the assay call for `CC1=NOC(=O)/C1=C\c1ccc(-c2cc(Cl)ccc2Cl)o1` please.
active

Tell me the assay call for `Clc1ccc(OCc2nnc(-c3ccccc3Br)o2)c(Cl)c1` please.
inactive

Tell me the assay call for `Cn1cc(/C=C2\SC(=S)N(NC(=O)c3cccc(Cl)c3)C2=O)c2ccccc21` please.
active

Tell me the assay call for `N#C/C(=C/c1ccc(-c2ccc(S(N)(=O)=O)cc2)o1)c1nc2ccccc2s1` please.
inactive

Tell me the assay call for `CCN(CC)C(=O)CSc1nnc2nnc3cc(Cl)ccc3n12` please.
active

Tell me the assay call for `CCN1/C(=C2\SC(=S)N(Cc3ccccc3)C2=O)Sc2ccccc21` please.
inactive

Tell me the assay call for `CC(C)[C@H]1C(=O)N2CCC[C@H]2[C@]2(O)O[C@](NC(=O)[C@@H]3C=C4c5cccc6[nH]cc(c56)C[C@H]4N(C)C3)(C(C)C)C(=O)N12` please.
active

Tell me the assay call for `Cc1ccc(-c2noc(CCC(=O)N3CCCC3)n2)cc1` please.
inactive

Tell me the assay call for `COC(=O)c1ccc2c(=O)sc(N3CCC(C(N)=O)CC3)nc2c1` please.
active

Tell me the assay call for `N#Cc1cc(C(=O)c2ccccc2O)cn(-c2nccs2)c1=O` please.
active

Tell me the assay call for Cc1ccc(OCCn2c(C3CC(=O)N(Cc4ccccc4)C3)nc3ccccc32)cc1 (configuration not stated) please.
inactive

Tell me the assay call for `COC(=O)c1c(=O)n(O)c2ccc(OC)cc2[n+]1[O-]` please.
active

Tell me the assay call for `O=C(CSc1nnc(SCc2ccccc2)s1)N/N=C/C=C\c1ccco1` please.
inactive

Tell me the assay call for `CCSc1cc(N2CCCC2)nc(-c2ccccc2Cl)n1` please.
inactive
